IC50: recorded values
- Measured Target: wild type LRRK2 (leucine-rich repeat kinase 2) (Homo sapiens)
Parameter Measured: IC50 (nM)

• COc1ccc2cc1Nc1ncc(Cl)c(n1)NCCCCN(C)C2=O [Example 16] = 6.62
• COc1ccc2cc1Nc1ncc(C(F)(F)F)c(n1)N(C)CCCCN(C)C2=O [Example 29] = 1.79
• COc1ccc2cc1Nc1ncc(C(F)(F)F)c(n1)N(C)CCN(C)C2=O [Example 25] = 62.9
• COc1cc2cc(c1)C(=O)N(C)CCNc1nc(ncc1Cl)N2 [Example 10] = 15.8
• CN1CCCN(C)c2nc(ncc2C(F)(F)F)Nc2cc(ccc2C(F)(F)F)C1=O [Example 31] = 58.1
• COc1ccc2cc1Nc1ncc(Cl)c(n1)OCCCN(C)C2=O [Example 42] = 5.91
• COc1c(F)cc2cc1Nc1ncc(C(F)(F)F)c(n1)OCCCN(C)C2=O [Example 45] = 10.2
• COc1ccc2cc1Nc1ncc(Cl)c(n1)N(C)CCCN(C)C2=O [Example 23] = 0.667
• CN1CCCNc2nc(ncc2C(F)(F)F)Nc2cc(ccc2OC2COC2)C1=O [Example 38] = 22.2

###

- Measured Target: wild type LRRK2 (leucine-rich repeat kinase 2) (Homo sapiens, UniProt Q5S007)
- Sequence (Q5S007 whole entry): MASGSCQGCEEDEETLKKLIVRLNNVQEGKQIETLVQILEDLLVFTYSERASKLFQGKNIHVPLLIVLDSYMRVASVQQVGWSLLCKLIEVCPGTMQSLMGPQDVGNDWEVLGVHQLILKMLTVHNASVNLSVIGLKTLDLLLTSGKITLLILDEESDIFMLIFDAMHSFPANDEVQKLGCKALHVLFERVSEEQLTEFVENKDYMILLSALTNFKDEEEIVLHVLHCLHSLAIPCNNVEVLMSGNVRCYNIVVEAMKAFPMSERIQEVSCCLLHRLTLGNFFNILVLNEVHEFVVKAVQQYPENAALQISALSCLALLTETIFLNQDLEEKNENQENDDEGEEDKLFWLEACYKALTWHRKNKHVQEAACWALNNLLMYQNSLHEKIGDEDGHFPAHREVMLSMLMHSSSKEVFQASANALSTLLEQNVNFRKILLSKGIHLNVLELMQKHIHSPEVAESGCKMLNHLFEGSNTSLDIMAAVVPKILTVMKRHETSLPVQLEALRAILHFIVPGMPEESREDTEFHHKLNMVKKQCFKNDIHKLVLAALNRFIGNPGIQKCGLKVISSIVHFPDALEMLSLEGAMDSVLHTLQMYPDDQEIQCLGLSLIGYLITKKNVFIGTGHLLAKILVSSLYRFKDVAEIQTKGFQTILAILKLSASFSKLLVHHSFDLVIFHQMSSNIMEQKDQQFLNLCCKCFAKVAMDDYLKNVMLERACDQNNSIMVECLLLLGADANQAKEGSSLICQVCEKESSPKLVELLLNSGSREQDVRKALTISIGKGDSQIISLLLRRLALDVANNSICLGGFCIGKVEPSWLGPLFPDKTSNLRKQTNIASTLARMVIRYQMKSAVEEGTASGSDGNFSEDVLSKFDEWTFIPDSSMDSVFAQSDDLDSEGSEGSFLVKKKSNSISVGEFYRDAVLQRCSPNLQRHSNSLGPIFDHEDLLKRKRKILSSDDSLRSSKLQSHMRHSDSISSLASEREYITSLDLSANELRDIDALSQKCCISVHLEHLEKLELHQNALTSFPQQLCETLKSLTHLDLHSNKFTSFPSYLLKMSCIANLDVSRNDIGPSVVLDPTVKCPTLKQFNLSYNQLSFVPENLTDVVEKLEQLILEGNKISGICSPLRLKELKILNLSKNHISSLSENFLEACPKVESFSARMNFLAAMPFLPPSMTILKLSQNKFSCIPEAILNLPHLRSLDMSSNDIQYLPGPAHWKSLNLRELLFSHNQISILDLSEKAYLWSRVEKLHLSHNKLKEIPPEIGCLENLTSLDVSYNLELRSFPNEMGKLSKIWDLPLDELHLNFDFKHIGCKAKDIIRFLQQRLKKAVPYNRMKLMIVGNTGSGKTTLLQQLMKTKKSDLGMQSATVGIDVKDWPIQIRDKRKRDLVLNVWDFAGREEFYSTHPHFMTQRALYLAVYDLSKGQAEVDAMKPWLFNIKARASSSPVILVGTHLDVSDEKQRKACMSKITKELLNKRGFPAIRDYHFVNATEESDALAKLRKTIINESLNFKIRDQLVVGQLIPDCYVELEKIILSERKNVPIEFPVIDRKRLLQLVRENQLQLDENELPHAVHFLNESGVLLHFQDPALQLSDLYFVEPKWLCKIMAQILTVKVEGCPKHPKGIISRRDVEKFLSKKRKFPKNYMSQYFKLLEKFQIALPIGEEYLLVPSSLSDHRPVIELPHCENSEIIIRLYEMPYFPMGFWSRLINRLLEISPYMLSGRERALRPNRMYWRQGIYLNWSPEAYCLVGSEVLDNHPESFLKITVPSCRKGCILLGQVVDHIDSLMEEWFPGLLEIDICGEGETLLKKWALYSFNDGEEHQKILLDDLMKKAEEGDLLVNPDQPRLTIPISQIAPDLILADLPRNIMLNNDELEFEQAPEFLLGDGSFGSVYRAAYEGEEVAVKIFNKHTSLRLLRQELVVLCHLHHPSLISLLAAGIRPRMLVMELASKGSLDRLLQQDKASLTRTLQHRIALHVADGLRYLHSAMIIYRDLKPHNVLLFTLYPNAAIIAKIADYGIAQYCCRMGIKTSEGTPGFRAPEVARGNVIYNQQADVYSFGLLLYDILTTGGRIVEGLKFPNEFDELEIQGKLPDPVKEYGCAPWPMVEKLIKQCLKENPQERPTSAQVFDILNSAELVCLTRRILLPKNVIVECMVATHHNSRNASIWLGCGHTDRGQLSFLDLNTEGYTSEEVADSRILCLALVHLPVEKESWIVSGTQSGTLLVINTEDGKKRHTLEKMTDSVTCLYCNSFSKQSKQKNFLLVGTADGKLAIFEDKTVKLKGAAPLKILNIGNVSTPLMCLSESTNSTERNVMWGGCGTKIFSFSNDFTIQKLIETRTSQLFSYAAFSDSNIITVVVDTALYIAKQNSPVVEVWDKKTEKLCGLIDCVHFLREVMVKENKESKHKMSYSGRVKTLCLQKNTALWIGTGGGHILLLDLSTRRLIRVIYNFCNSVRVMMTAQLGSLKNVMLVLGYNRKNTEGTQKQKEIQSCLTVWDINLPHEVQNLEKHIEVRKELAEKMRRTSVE
Parameter Measured: IC50 (µM)

- COc1cc2cc(c1)C(=O)N(C)CCCN(C)c1nc(ncc1C(F)(F)F)N2: 0.00289
- O=C1NCCCCNc2nc(ncc2Cl)Nc2cccc1c2: 0.0159
- CCc1ccc2cc1Nc1ncc(Cl)c(n1)NCCCCN(C)C2=O: 0.0134

###

- Measured Target: G2019S mutant of LRRK2 (leucine-rich repeat kinase 2) (Homo sapiens, UniProt Q5S007, G2019S)
- Sequence (Q5S007 whole entry G2019S): as the sequence (Q5S007 whole entry) above, with G2019S counted along it
- Experiment Summary: HotSpot radiometric kinase assay (Reaction Biology), LRRK2 G2019S mutant inhibitory activity
- Setup Conditions: 10 μM ATP, 25° C., 120 min
Parameter Measured: IC50 (nM)

- COc1ccc2cc1C(=O)N(C)CCCCNc1nc(ncc1Cl)N2 [Example 18]: 145
- CN1CCCNc2nc(ncc2Cl)Nc2cc(ccc2OC(F)(F)F)C1=O [Example 40]: 3.81
- COc1ccc2cc1C(=O)N(C)CCCNc1nc(ncc1Cl)N2 [Example 15]: 23.3
- CCN1CCNc2nc(ncc2Cl)Nc2cc(ccc2OC)C1=O [Example 21]: 3.09
- COc1ccc2cc1C(=O)N(C)CCNc1nc(ncc1Cl)N2 [Example 9]: 79.7
- CN1CCNc2nc(ncc2Cl)Nc2cccc(c2)C1=O [Example 2]: 19.3
- O=C1NCCCCNc2nc(ncc2Cl)Nc2cccc1c2 [Example 3]: 13.1
- COc1ccc2cc1Nc1ncc(Cl)c(n1)N(C)CCCCN(C)C2=O [Example 27]: 2
- CN1CCCOc2nc(ncc2C(F)(F)F)Nc2cc(ccc2OC(F)(F)F)C1=O [Example 44]: 10.5
- COc1c(F)cc2cc1Nc1ncc(C(F)(F)F)c(n1)OCCCN(C)C2=O [Example 45]: 4.8
- COc1ccc2cc1Nc1ncc(C(F)(F)F)c(n1)N(C)CCCCN(C)C2=O [Example 29]: 0.72
- COc1ccc2cc1Nc1ncc(Cl)c(n1)NCCCCN(C)C2=O [Example 16]: 7.12
- CN1CCCNc2nc(ncc2C(F)(F)F)Nc2cc(ccc2OC(F)(F)F)C1=O [Example 41]: 3.08
- COc1ccc2cc1Nc1ncc(Cl)c(n1)N(C)CCN(C)C2=O [Example 20]: 3.51
- COc1ccc2cc1Nc1ncc(C(F)(F)F)c(n1)N(C)CCN(C)C2=O [Example 25]: 25.7
- COc1ccc2cc1Nc1ncc(F)c(n1)NCCN(C)C2=O [Example 7]: 34.1
- COc1ccc2cc1Nc1ncc(Cl)c(n1)NCCN(C(C)C)C2=O [Example 22]: 0.98
- CN1CCCN(C)c2nc(ncc2C(F)(F)F)Nc2cc(ccc2OC(F)(F)F)C1=O [Example 30]: 0.574
- COc1ccc2cc1Nc1ncc(Cl)c(n1)OCCCN(C)C2=O [Example 42]: 5.14

###

- Experiment Summary: Blood-brain barrier (BBB) permeability after oral administration, plasma and brain by LC-MS/MS
- Type: in vivo
- Setup Conditions: 5 mg/kg oral administration; plasma and brain tissue at 1 and 3 hours
Returns: string. Value is label 1 if measured Kp is below 0.1, and label 0 if it is greater than or equal to it.

• COc1cc2cc(c1)C(=O)N(C)CCCN(C)c1nc(ncc1C(F)(F)F)N2 = label 0
• COc1ccc2cc1C(=O)N(C)CCCNc1nc(ncc1Cl)N2 = label 0
• COc1cc2cc(c1)C(=O)N(C)CCCNc1nc(ncc1Cl)N2 = label 0
• COc1ccc2cc1Nc1ncc(Cl)c(n1)NCCN(C)C2=O = label 1
• COc1cc2cc(c1)C(=O)N(C)CCNc1nc(ncc1Cl)N2 = label 1
• CCc1ccc2cc1Nc1ncc(Cl)c(n1)NCCCN(C)C2=O = label 0
• COc1ccc2cc1Nc1ncc(Cl)c(n1)NCCCCN(C)C2=O = label 0

###

- Measured Target: G2019S mutant of LRRK2 (leucine-rich repeat kinase 2) (Homo sapiens, UniProt Q5S007, G2019S)
- Experiment Summary: HotSpot radiometric kinase assay (Reaction Biology), LRRK2 G2019S mutant inhibitory activity
- Setup Conditions: 10 μM ATP, 25° C., 120 min
pIC50: −log10 of the molar value.
Response key: Yes means pIC50 >= 8; No means pIC50 < 8.

• COc1ccc2cc1Nc1ncc(Cl)c(n1)N(C)CCCN(C)C2=O [Example 23] = Yes
• CN1CCCN(C)c2nc(ncc2C(F)(F)F)Nc2cc(ccc2C(F)(F)F)C1=O [Example 31] = No
• COc1ccc2cc1Nc1ncc(C(F)(F)F)c(n1)OCCCN(C)C2=O [Example 43] = Yes
• COc1ccc2cc1Nc1ncc(Cl)c(n1)NCCN(C)C2=O [Example 6] = Yes
• CCc1ccc2cc1Nc1ncc(Cl)c(n1)NCCCN(C)C2=O [Example 13] = Yes
• CN1CCCNc2nc(ncc2C(F)(F)F)Nc2cc(ccc2OC2COC2)C1=O [Example 38] = No
• CN1CCCNc2nc(ncc2C(F)(F)F)Nc2cc(ccc2OC2CC2)C1=O [Example 46] = Yes
• COc1cc2cc(c1)C(=O)N(C)CCCN(C)c1nc(ncc1C(F)(F)F)N2 [Example 32] = Yes

###

IC50: recorded values
- Measured Target: G2019S mutant of LRRK2 (leucine-rich repeat kinase 2) (Homo sapiens, UniProt Q5S007, G2019S)
- Experiment Summary: HotSpot radiometric kinase assay (Reaction Biology), LRRK2 G2019S mutant inhibitory activity
- Setup Conditions: 10 μM ATP, 25° C., 120 min
Parameter Measured: IC50 (nM)

- COc1cc2cc(c1)C(=O)N(C)CCNc1nc(ncc1Cl)N2: 16
- CCc1ccc2cc1Nc1ncc(Cl)c(n1)NCCCCN(C)C2=O: 6.86
- COc1cc2cc(c1)C(=O)N(C)CCCNc1nc(ncc1Cl)N2: 9.38
